- targetDesc: APCE/FAP (Homo sapiens)
- Construct: absence of an about 26-residue amino terminal peptide constituting the transmembrane and intracytosolic domains; from tissue
- testSummary: APCE/FAP inhibition constants (Ki) with Tic-Pro-AFC substrate
- Assay type: biochemical
- experimentalParameters: substrate Tic-Pro-AFC
pKi: −log10 of the molar value.
reportedMetric: pKi

> print(dat)
                   substance  number
1  Ac-Arg-Gly-Gly-DL-boroPro    7.64

====

In this section, each of the compounds is paired with its reported pKi.
- targetDesc: APCE/FAP (Homo sapiens, UniProt Q12884)
- Construct: absence of an about 26-residue amino terminal peptide constituting the transmembrane and intracytosolic domains
- Sequence (Q12884 24-760 limits assumed): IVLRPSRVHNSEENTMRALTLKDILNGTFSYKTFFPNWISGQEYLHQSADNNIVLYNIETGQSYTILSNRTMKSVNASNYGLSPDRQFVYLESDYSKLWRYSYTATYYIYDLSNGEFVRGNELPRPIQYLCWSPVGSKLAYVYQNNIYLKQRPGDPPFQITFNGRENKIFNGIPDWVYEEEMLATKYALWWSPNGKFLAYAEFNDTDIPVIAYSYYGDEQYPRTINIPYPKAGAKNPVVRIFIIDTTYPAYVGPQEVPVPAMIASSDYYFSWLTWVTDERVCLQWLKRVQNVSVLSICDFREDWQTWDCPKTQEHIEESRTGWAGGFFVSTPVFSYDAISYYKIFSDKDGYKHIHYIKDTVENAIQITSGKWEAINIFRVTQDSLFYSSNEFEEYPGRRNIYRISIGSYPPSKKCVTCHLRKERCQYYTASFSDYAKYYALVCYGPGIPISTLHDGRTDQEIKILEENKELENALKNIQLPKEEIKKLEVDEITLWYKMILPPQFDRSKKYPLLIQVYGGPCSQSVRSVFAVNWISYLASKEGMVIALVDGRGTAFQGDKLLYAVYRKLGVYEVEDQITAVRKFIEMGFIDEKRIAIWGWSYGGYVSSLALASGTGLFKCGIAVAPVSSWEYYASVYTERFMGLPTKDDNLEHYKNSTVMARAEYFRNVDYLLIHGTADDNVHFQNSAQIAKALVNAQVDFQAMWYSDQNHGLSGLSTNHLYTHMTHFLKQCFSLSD
- testSummary: APCE/FAP inhibition constants (Ki) with Tic-Pro-AFC substrate
- experimentalParameters: substrate Tic-Pro-AFC
- Experimental: For accurate assessment of kinetic parameters, saturating concentrations of substrate were used. For standard curves, dilutions of AFC (7-amino-4-trifluoromethylcoumarin) were prepared in the same assay buffer and corresponding fluorescence was measured.
pKi: −log10 of the molar value.
reportedMetric: pKi

> print(dat)
                                   compound  number
1  CC(=O)N[C@@H](CCCNC(=N)N)C(=O)NCCOCCOCC(=O)N[C@H](C)C(=O)N1CCC[C@@H]1B(O)O (single isomer, unassigned)    6.72
2  CC(=O)N[C@@H](CCCNC(=N)N)C(=O)NCCOCCOCC(=O)N[C@H](C)C(=O)N1CCC[C@H]1B(O)O    8.24
3  CC(=O)N[C@@H](CCCNC(=N)N)C(=O)NCCOCCOCC(=O)NCC(=O)N1CCC[C@H]1B(O)O    8.74
4  CC(=O)N[C@@H](CCCNC(=N)N)C(=O)NCCOCCOCC(=O)N[C@@H](CO)C(=O)NCC(=O)N1CCC[C@H]1B(O)O    8.57
5  CC(=O)N[C@@H](CCCNC(=N)N)C(=O)NCCOCCOCC(=O)N[C@H](CC(=O)O)C(=O)N1CCC[C@H]1B(O)O    5.86
